Test system: Fibroblast
METHOD: Incucyte cell viability with human fibroblast; also: filed as whole numbers so only -1 and 0 and 1 occur
Type: toxicity, cell-based
DETAILS: 12 h, 10 µM, compound concentration 10 uM, replicate number 1, timepoint 12 hours
QUANTITY KIND: Growth Rate
Form rule: numeric answer, no unit written next to it.

[ask] Give the reported Growth Rate for `Cc1c(-c2ccc(O)cc2)n(Cc2ccc(OCCN3CCCCCC3)cc2)c2ccc(O)cc12` (system: Fibroblast).
[reply] 0

[ask] API: value(readout= Growth Rate, system= Fibroblast, query= Cn1c(-c2csc(C3CCN(CC4=NC5N=CC=CC5N4)CC3)n2)nc2ccccc21 (stereo unspecified) )
[reply] 1

[ask] Provide the documented Growth Rate with Fibroblast as the system for `O=C(NCCCN1CCOC1=O)c1cnc(NCc2cc(Br)ccc2Br)nc1NC1CCCC1`
[reply] 0

[ask] Under Fibroblast: Growth Rate value of C=CC(=O)Nc1cc2c(Nc3ccc(F)c(Cl)c3)ncnc2cc1OCCCN1CCOCC1.Cl.Cl [CANERTINIB DIHYDROCHLORIDE] ?
[reply] 0

[ask] Query for Fibroblast: what Growth Rate does the record show for `C=CC(=O)Nc1cccc(C(=O)Nc2ccc(Nc3cc(-c4[nH]c(SC)nc4C)ccn3)cc2)c1` ?
[reply] 0

[ask] Request - read-out Growth Rate | tested on Fibroblast | compound COc1ccc(C2(O)OC(=O)C(c3ccc4c(c3)OCO4)=C2Cc2cc(OC)c(OC)c(OC)c2)cc1 (stereo unspecified)
[reply] 0
